# target-system: Serine/threonine-protein kinase MRCK beta (Homo sapiens) (UniProt Q9Y5S2);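 note: averaged inhibition values against MRCK beta, part of the GSK PKIS profiling dataset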
# Sequence (Q9Y5S2 whole entry): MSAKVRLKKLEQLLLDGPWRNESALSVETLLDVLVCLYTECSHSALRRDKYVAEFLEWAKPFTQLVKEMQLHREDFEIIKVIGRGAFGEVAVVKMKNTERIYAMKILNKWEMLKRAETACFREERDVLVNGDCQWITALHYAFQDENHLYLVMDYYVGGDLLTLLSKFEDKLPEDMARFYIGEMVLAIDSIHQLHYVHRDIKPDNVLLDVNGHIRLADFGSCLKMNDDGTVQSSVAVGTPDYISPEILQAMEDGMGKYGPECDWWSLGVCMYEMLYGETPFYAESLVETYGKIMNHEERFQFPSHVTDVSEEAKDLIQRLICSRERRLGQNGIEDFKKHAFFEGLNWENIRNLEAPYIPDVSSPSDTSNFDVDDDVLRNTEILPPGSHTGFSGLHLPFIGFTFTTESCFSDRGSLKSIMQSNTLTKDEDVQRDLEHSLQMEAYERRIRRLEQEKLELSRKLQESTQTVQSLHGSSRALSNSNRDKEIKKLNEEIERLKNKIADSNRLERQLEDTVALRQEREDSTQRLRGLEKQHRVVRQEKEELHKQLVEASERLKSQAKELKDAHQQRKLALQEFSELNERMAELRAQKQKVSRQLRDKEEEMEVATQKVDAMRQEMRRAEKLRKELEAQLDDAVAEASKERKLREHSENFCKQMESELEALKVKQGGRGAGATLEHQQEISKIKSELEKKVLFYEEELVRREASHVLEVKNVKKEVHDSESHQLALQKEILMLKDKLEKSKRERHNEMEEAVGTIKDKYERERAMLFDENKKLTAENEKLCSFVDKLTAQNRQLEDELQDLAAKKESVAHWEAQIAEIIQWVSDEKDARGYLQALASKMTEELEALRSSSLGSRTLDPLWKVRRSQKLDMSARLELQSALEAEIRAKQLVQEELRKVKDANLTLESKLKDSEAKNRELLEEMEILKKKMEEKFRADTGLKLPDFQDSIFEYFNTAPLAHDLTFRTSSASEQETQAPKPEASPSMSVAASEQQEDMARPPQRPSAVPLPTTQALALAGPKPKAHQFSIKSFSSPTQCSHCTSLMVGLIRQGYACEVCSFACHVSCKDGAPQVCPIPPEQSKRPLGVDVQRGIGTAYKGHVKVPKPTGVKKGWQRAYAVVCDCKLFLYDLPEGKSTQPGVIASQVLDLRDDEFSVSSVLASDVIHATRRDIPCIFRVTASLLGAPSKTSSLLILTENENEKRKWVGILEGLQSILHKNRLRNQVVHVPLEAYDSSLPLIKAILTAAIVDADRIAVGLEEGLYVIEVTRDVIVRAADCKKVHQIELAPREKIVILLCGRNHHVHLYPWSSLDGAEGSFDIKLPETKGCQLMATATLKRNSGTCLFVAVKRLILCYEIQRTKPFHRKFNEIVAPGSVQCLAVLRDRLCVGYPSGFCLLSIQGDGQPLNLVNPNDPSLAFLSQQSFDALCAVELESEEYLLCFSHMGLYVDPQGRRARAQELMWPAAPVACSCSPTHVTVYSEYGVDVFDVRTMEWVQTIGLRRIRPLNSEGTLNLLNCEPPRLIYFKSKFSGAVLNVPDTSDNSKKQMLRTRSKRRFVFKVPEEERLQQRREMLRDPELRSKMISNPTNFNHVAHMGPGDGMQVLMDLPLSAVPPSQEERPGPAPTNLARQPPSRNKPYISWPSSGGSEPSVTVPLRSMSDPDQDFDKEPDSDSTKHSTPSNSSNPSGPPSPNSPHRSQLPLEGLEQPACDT
# condition-set: at 1 µM
outcome-measure: inhibition

INSERT INTO measurements (input_smiles, assay_result) VALUES
  ('NS(=O)(=O)c1ccc(Nc2cc(-c3cccc(O)c3)n[nH]2)cc1', '1.33%'),
  ('Cc1ccc(Nc2ccnc(Nc3cccc(C(N)=O)c3)n2)cc1O', '-0.07%'),
  ('CCS(=O)(=O)c1ccc(OC)c(Nc2ncc(-c3cccc(OC)c3)o2)c1', '0.59%'),
  ('Nc1nccc(-c2c(-c3ccc(F)cc3)nn3cc(C(F)(F)F)ccc23)n1', '-2.82%'),
  ('Nc1nccc(C#Cc2cncnc2Nc2ccc(OCc3cccc(F)c3)c(Cl)c2)n1', '2.38%'),
  ('CN(C)CCCn1c(-c2nonc2N)nc2cnccc21', '22.6%'),
  ('ON=C1CCc2cc(-c3nc(C4CCNCC4)[nH]c3-c3ccncc3)ccc21', '1.17%'),
  ('COc1cccc(-n2nc(C)c3c(N/N=C(\C)c4ccncc4)ncnc32)c1', '-0.47%'),
  ('CC(C)c1ccc(Nc2nccc(-c3cnn4ncccc34)n2)cc1', '-0.74%'),
  ('OCc1ccc(-c2nc(-c3ccccn3)c(-c3ccc4c(c3)OCO4)[nH]2)cc1', '1.33%'),
  ('N#Cc1c(NC(=O)c2ccccc2F)sc2c1CCCC2', '-0.14%');

----------
# target-system: Casein kinase I isoform gamma-2 (Homo sapiens);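 note: values are mean inhibition figures reported as part of the GSK PKIS dataset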
# condition-set: at 0.1 µM
outcome-measure: inhibition

INSERT INTO results (compound, target_system, outcome_measure, assay_result) VALUES
  ('CCCN1CCCC(c2ccc(Nc3nc(Nc4cc(F)ccc4C(N)=O)c4cc[nH]c4n3)c(OC)c2)C1 (stereo not given)', 'Casein kinase I isoform gamma-2 (Homo sapiens)', 'inhibition', '29.6%'),
  ('NS(=O)(=O)c1ccc(NC=C2C(=O)Nc3ccc4ncsc4c32)cc1', 'Casein kinase I isoform gamma-2 (Homo sapiens)', 'inhibition', '3.58%'),
  ('Oc1cccc(-c2nc(-c3ccccc3)[nH]c2-c2ccncc2)c1', 'Casein kinase I isoform gamma-2 (Homo sapiens)', 'inhibition', '2.14%'),
  ('COC(=O)c1ccc2c(c1)C(=Cc1cc(Br)c(O)c(Br)c1)C(=O)N2', 'Casein kinase I isoform gamma-2 (Homo sapiens)', 'inhibition', '4.6%'),
  ('NS(=O)(=O)c1ccc(N/N=C2\C(=O)Nc3ccc(Cl)cc32)cc1', 'Casein kinase I isoform gamma-2 (Homo sapiens)', 'inhibition', '2.56%'),
  ('COc1cccc(-n2ncc3c(N/N=C/c4ccc(S(C)(=O)=O)cc4)ncnc32)c1', 'Casein kinase I isoform gamma-2 (Homo sapiens)', 'inhibition', '-2.87%'),
  ('Cc1ccc(NC(=O)CC2CC2)cc1-c1ccc(C(=O)NCC2CC2)cc1', 'Casein kinase I isoform gamma-2 (Homo sapiens)', 'inhibition', '2.95%'),
  ('CN(C)C(=O)O[C@H]1CN[C@H](C#Cc2cc3ncnc(Nc4ccc(OCc5cccc(F)c5)c(Cl)c4)c3s2)C1', 'Casein kinase I isoform gamma-2 (Homo sapiens)', 'inhibition', '2.17%'),
  ('O=C1Nc2ccc(-c3cccnc3)cc2C1=Cc1cc(Br)c(O)c(Br)c1', 'Casein kinase I isoform gamma-2 (Homo sapiens)', 'inhibition', '2.62%'),
  ('c1ccc(Nc2ncc(-c3ccccc3)o2)cc1', 'Casein kinase I isoform gamma-2 (Homo sapiens)', 'inhibition', '3.32%');

----------
# System: Proto-oncogene tyrosine-protein kinase receptor Ret (Homo sapiens), P07949 [Y791F]
# Sequence (P07949 whole entry Y791F): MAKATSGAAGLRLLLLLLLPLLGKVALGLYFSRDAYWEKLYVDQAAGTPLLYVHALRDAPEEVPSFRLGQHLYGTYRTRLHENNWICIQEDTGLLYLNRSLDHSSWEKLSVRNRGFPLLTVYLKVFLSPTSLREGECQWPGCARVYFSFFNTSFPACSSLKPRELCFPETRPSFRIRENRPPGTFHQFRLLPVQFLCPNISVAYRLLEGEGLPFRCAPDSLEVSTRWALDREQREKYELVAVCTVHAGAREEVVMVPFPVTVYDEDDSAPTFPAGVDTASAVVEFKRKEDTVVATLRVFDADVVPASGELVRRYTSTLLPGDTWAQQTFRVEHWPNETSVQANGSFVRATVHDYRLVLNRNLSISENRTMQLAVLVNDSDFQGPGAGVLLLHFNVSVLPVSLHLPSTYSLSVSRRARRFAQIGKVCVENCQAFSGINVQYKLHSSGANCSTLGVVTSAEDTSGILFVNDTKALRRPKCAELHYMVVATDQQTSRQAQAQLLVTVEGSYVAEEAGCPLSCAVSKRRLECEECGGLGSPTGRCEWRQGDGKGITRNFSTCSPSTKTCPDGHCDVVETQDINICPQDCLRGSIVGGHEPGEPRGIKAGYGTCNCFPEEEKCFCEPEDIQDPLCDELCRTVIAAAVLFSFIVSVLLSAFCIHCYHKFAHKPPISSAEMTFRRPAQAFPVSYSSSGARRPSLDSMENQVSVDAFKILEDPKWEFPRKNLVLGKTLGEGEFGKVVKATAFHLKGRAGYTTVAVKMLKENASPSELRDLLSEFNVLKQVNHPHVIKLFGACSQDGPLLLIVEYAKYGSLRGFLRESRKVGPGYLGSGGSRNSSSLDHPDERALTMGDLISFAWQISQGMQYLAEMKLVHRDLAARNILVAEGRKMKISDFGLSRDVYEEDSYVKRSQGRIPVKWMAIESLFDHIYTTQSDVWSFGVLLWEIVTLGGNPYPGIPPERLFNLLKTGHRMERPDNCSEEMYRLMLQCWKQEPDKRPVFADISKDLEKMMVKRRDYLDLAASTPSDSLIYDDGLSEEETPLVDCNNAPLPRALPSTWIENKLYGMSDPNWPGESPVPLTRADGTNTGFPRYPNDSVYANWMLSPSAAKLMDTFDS
# condition-set: at 0.1 µM
outcome-measure: inhibition (%)

INSERT INTO assay_data (input_smiles, target_system, assay_result) VALUES
  ('Oc1cccc(-c2nc(-c3ccccc3)[nH]c2-c2ccncc2)c1', 'Proto-oncogene tyrosine-protein kinase receptor Ret (Homo sapiens), P07949 [Y791F]', 30),
  ('N#Cc1c(NC(=O)c2ccccc2F)sc2c1CCCC2', 'Proto-oncogene tyrosine-protein kinase receptor Ret (Homo sapiens), P07949 [Y791F]', -0.3),
  ('NS(=O)(=O)c1ccc(-c2cc3ccncc3cc2OCc2ccccc2)cc1', 'Proto-oncogene tyrosine-protein kinase receptor Ret (Homo sapiens), P07949 [Y791F]', 5.72),
  ('COC(=O)c1ccc2c(c1)C(=Cc1cc(Br)c(O)c(Br)c1)C(=O)N2', 'Proto-oncogene tyrosine-protein kinase receptor Ret (Homo sapiens), P07949 [Y791F]', 12.2),
  ('CN(C)C(=O)O[C@H]1CN[C@H](C#Cc2cc3ncnc(Nc4ccc(OCc5cccc(F)c5)c(Cl)c4)c3s2)C1', 'Proto-oncogene tyrosine-protein kinase receptor Ret (Homo sapiens), P07949 [Y791F]', 3.68),
  ('Nc1nccc(-c2c(-c3ccc(F)cc3)nn3cc(C(F)(F)F)ccc23)n1', 'Proto-oncogene tyrosine-protein kinase receptor Ret (Homo sapiens), P07949 [Y791F]', -0.45),
  ('Nc1ccc(C#Cc2cncnc2Nc2ccc(OCc3cccc(F)c3)c(Cl)c2)cc1', 'Proto-oncogene tyrosine-protein kinase receptor Ret (Homo sapiens), P07949 [Y791F]', 2.75),
  ('CCOc1nccc2c1nc(-c1nonc1N)n2CC', 'Proto-oncogene tyrosine-protein kinase receptor Ret (Homo sapiens), P07949 [Y791F]', 9.76),
  ('COc1cc2ncnc(Nc3ccc4c(cnn4Cc4ccccc4)c3)c2cc1OC', 'Proto-oncogene tyrosine-protein kinase receptor Ret (Homo sapiens), P07949 [Y791F]', 9.71),
  ('Cc1cc(Cl)cc2c1NC(=O)C2=NNc1ccc(S(N)(=O)=O)cc1', 'Proto-oncogene tyrosine-protein kinase receptor Ret (Homo sapiens), P07949 [Y791F]', -0.41),
  ('CC(C)c1ccc(Nc2nccc(-c3cnn4ncccc34)n2)cc1', 'Proto-oncogene tyrosine-protein kinase receptor Ret (Homo sapiens), P07949 [Y791F]', 5.09),
  ('Nc1nccc(-c2c(-c3ccc(F)cc3)ncn2CCCN2CCOCC2)n1', 'Proto-oncogene tyrosine-protein kinase receptor Ret (Homo sapiens), P07949 [Y791F]', 2.28),
  ('[O-][S+]1CCN(Cc2ccc(-c3ccc4ncnc(Nc5ccc(OCc6ccccc6)c(Cl)c5)c4c3)o2)CC1', 'Proto-oncogene tyrosine-protein kinase receptor Ret (Homo sapiens), P07949 [Y791F]', 4.06),
  ('Cc1ccc2c(c1)/C(=N/Nc1ccc(S(N)(=O)=O)cc1)C(=O)N2', 'Proto-oncogene tyrosine-protein kinase receptor Ret (Homo sapiens), P07949 [Y791F]', 8.06),
  ('COc1ccc2ncnc(Nc3ccc(OCc4ccccc4)cc3)c2c1', 'Proto-oncogene tyrosine-protein kinase receptor Ret (Homo sapiens), P07949 [Y791F]', 4.16),
  ('N#Cc1cccc(Nc2nccc(-c3cnn4ncccc34)n2)c1', 'Proto-oncogene tyrosine-protein kinase receptor Ret (Homo sapiens), P07949 [Y791F]', 7.91),
  ('Cc1ccc2c(-c3ccnc(Nc4cccc(C(F)(F)F)c4)n3)c(-c3ccccc3)nn2n1', 'Proto-oncogene tyrosine-protein kinase receptor Ret (Homo sapiens), P07949 [Y791F]', 6.2),
  ('NS(=O)(=O)c1cccc(-c2cc3ccncc3cc2OCc2ccccc2)c1', 'Proto-oncogene tyrosine-protein kinase receptor Ret (Homo sapiens), P07949 [Y791F]', 12.6),
  ('COc1cc(/C=N/Nc2ncnc3c2cnn3C(C)C)ccc1O', 'Proto-oncogene tyrosine-protein kinase receptor Ret (Homo sapiens), P07949 [Y791F]', 54),
  ('O=C1Nc2ccccc2/C1=C/Nc1ccc2[nH]c(=O)[nH]c2c1', 'Proto-oncogene tyrosine-protein kinase receptor Ret (Homo sapiens), P07949 [Y791F]', 25.8),
  ('CN(c1ccc(NC(=O)Nc2ccc(OC(F)(F)F)cc2)cc1)c1ccnc(Nc2cccc(S(N)(=O)=O)c2)n1', 'Proto-oncogene tyrosine-protein kinase receptor Ret (Homo sapiens), P07949 [Y791F]', 67.4);

----------
# target-system: Fibroblast growth factor receptor 4 (Homo sapiens) (UniProt P22455);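 note: reported figure is the averaged percent inhibition of FGFR4, from the GSK PKIS kinase screening panel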
# Sequence (P22455 22-802 limits assumed): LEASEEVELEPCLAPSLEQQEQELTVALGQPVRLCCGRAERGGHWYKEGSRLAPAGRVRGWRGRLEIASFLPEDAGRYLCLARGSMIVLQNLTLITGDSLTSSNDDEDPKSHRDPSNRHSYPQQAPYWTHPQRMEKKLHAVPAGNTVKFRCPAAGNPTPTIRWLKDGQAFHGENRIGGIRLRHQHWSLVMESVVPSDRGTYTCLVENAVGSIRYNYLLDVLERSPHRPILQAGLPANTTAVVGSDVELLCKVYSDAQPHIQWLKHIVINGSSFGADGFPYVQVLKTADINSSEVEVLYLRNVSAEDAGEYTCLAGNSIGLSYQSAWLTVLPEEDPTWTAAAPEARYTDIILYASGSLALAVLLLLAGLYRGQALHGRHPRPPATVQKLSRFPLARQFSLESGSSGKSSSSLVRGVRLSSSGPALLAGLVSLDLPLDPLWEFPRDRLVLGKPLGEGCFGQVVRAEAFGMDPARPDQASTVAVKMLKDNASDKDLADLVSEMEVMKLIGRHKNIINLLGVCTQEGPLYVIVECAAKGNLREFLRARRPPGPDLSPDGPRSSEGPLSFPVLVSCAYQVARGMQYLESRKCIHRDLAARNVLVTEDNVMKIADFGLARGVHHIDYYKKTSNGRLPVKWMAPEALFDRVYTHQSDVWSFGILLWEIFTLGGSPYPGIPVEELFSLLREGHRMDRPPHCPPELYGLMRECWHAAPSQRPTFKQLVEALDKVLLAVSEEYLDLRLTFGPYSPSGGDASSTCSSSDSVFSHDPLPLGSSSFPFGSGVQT
# condition-set: at 1 µM
outcome-measure: inhibition (%)

INSERT INTO measurements (input_smiles, uom, assay_result) VALUES
  ('Cc1ccc2c(-c3ccnc(Nc4ccc5c(c4)OCCO5)n3)c(-c3ccc(C(F)(F)F)cc3)nn2n1', '%', 2.08),
  ('Nc1ccc(C#Cc2cncnc2Nc2ccc(OCc3cccc(F)c3)c(Cl)c2)cc1', '%', 1.61),
  ('CCS(=O)(=O)c1ccc(OC)c(Nc2ncc(-c3cccc(OC)c3)o2)c1', '%', 7.65),
  ('O=C1Nc2ccccc2/C1=C/Nc1ccc2[nH]c(=O)[nH]c2c1', '%', 11.4),
  ('Cc1cc(O)cc(C)c1/C=C/c1cncc(C(=O)N(C)C)c1', '%', 2.26),
  ('COc1ccc2ncnc(Nc3ccc(OCc4ccccc4)cc3)c2c1', '%', 2.59),
  ('Cc1ccc(O)cc1Nc1ccnc2ccc(S(C)(=O)=O)cc12', '%', 9.15),
  ('CS(=O)(=O)CCNCc1nc(-c2ccc3ncnc(Nc4ccc(OCc5cccc(C(F)(F)F)c5)cc4)c3c2)cs1', '%', 0.59),
  ('Cc1ccc(C(=O)NC2CC2)cc1-c1ccc2[nH]ncc2c1', '%', 0.32),
  ('NS(=O)(=O)c1ccc(N/N=C2\C(=O)Nc3ccc(Cl)cc32)cc1', '%', 0.91);

From: ChEMBL document CHEMBL1961873
